Please go through the items and note down their viability, T/C.
- Test system: 186277-243-T-J2-PDC multi-cell spheroid viability;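 further: spheroids exposed to compounds for seven days before viability reading; 100% = DMSO vehicle control viability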
- Assay Protocol: Anticancer human tumor 186277-243-T-J2-PDC patient-derived colon adenocarcinoma cell line growth inhibition [PI3K]
- Reported Conditions: second compound 0.0316 µM; first compound 1 µM; hits give low values
The response must be a number in % with no trailing unit.

## Task Could you tell me which viability, T/C is on file for CC(C)NCC(C(=O)N1CCN(c2ncnc3c2C(C)CC3O)CC1)c1ccc(Cl)cc1 (stereo not drawn) + COc1c(OCCCN2CCOCC2)ccc2c3n(c(=NC(=O)c4cnc(N)nc4)nc12)CCN3 ?
## Result 23.2

## Task Field request: viability, T/C | item: CCCS(=O)(=O)Nc1ccc(F)c(C(=O)c2c[nH]c3ncc(-c4ccc(Cl)cc4)cc23)c1F + COc1c(OCCCN2CCOCC2)ccc2c3n(c(=NC(=O)c4cnc(N)nc4)nc12)CCN3
## Result 88.2

## Task Which viability, T/C is reported for this molecule? CCN1CCN(Cc2ccc(Nc3ncc(F)c(-c4cc(F)c5nc(C)n(C(C)C)c5c4)n3)nc2)CC1 + Cc1nc(NC(=O)N2CCCC2C(N)=O)sc1-c1ccnc(C(C)(C)C(F)(F)F)c1
## Result 137
